# system under test: 15-PGDH (Homo sapiens)
# Construct: endogenous in cells; host or cells: A549 human lung adenocarcinoma cells
# assay procedure: A549 cell based assay: PGE2 in supernatant (HTRF), fold induction over IL-1β
# study conditions: A549 cells, compound 0.1 μM plus IL-1β versus IL-1β only; read-out: PGE2-HTRF over IL1-β: Fold induction at 0.1 μM
reported property: fold induction at 0.1 µM
I'd appreciate a reply containing only the number, no unit.

See these solved cases before continuing.
C[C@H]1CCCN(C(=O)c2cnc3c(cnn3-c3ccc(N4CCNC4=O)nc3)c2)C1 [Compound C-57]; 4.94
Cc1nc(-c2ccc(-n3nnc4cc(C(=O)N5CCC[C@H](C)C5)cnc43)cc2)no1 [Compound C-29]; 6.4
O=C(c1cnc2c(cnn2-c2ccc(-c3nnc[nH]3)cc2)c1)N1CCCC(F)(F)C1 [Compound C-59]; 4.74

Okay, next one:
For the compound CCOc1ccc(-n2nnc3cc(C(=O)N4CCC[C@H](C)C4)cnc32)cc1 [Compound C-30] , give its measured fold induction at 0.1 µM value. 2.5

* * *

# system under test: 15-PGDH/HPGD (Homo sapiens, UniProt P15428)
# assay procedure: hPGDH inhibitor screening biochemical assay
# study conditions: 10 nM enzyme, 15 μM PGE2, 0.25 mM NAD, fluorescence ex/em 340/485 nm
List of IC50 values.

Write IC50 of CCOC(=O)Nc1cncc(-n2ncc3cc([S+]([O-])CC4CC4)cnc32)c1 (centres unmarked) ; system used: 15-PGDH/HPGD (Homo sapiens, UniProt P15428) 100 to 1000 nM

Write IC50 of C[C@@H]1CCN(C(=O)c2cnc3c(cnn3-c3ccc(-c4nnc[nH]4)cc3)c2)C1 ; system used: 15-PGDH/HPGD (Homo sapiens, UniProt P15428) 100 to 1000 nM

Write IC50 of C[C@H]1CCN(C(=O)c2cnc3c(cnn3-c3ccc(-c4nnc[nH]4)cc3)c2)C1 ; system used: 15-PGDH/HPGD (Homo sapiens, UniProt P15428) ≥ 1000 nM

Write IC50 of COCC(=O)Nc1cncc(-n2ncc3cc([S+]([O-])C4CCC(F)(F)CC4)cnc32)c1 (centres unmarked) ; system used: 15-PGDH/HPGD (Homo sapiens, UniProt P15428) < 100 nM

Write IC50 of CN(C)c1nc2ccc(-n3ncc4cc(C(=O)N5CCC(F)(F)CC5)cnc43)cn2n1 ; system used: 15-PGDH/HPGD (Homo sapiens, UniProt P15428) ≥ 1000 nM

* * *

List of fold induction at 0.01 µM values.
# system under test: 15-PGDH (Homo sapiens)
# Construct: endogenous in cells; host or cells: A549 human lung adenocarcinoma cells
# Sequence (P15428 1-266): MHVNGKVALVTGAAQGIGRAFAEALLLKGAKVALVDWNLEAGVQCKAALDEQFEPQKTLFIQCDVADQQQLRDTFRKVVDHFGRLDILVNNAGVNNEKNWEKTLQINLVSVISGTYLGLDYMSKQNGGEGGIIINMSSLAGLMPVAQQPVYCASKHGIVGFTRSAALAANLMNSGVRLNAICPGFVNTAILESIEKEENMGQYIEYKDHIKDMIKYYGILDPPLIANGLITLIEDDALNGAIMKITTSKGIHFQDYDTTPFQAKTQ
# assay procedure: A549 cell based assay: PGE2 in supernatant (HTRF), fold induction over IL-1β
# study conditions: A549 cells, compound 0.01 μM plus IL-1β versus IL-1β only; read-out: PGE2-HTRF over IL1-β: Fold induction at 0.01 μM

O=C(c1cnc2c(cnn2-c2cncc(N3CCOCC3)c2)c1)N1CCC(F)(F)CC1; 0.76
C[C@H]1CCCN(C(=O)c2cnc3c(c2)nnn3-c2ccc(-c3nnc[nH]3)cc2)C1; 1.81
O=C(c1cnc2c(cnn2-c2ccc(-c3ncn[nH]3)cc2)c1)N1CCC(F)(F)CC1; 2.14
C[C@H]1CCCN(C(=O)c2cnc3c(cnn3-c3ccc4nc(N)nn4c3)c2)C1; 2.06
O=C(c1cnc2c(cnn2-c2ccc(-c3nnc[nH]3)cc2)c1)N1CCCC(F)(F)C1; 3.09

For the compound C[C@H]1CCCN(C(=O)c2cnc3c(cnn3-c3ccc(N4CCOCC4)nc3)c2)C1 , give its measured fold induction at 0.01 µM value. 1.31

For the compound Cc1nc(-c2ccc(-n3nnc4cc(C(=O)N5CCC[C@H](C)C5)cnc43)cc2)no1 , give its measured fold induction at 0.01 µM value. 4.08

For the compound CCOc1ccc(-n2nnc3cc(C(=O)N4CCC[C@H](C)C4)cnc32)cc1 , give its measured fold induction at 0.01 µM value. 1.68

For the compound C[C@H]1CCCN(C(=O)c2cnc3c(cnn3-c3ccc(N4CCOC4=O)nc3)c2)C1 , give its measured fold induction at 0.01 µM value. 3.56

For the compound C[C@H]1CCCN(C(=O)c2cnc3c(cnn3-c3ccc(N4CCNC4=O)nc3)c2)C1 , give its measured fold induction at 0.01 µM value. 4.94

* * *

# system under test: 15-PGDH (Homo sapiens, UniProt P15428)
# Construct: endogenous in cells; host or cells: A549 human lung adenocarcinoma cells
# assay procedure: A549 cell based assay: PGE2 in supernatant (HTRF), fold induction over IL-1β
# study conditions: A549 cells, compound 0.001 μM plus IL-1β versus IL-1β only; read-out: PGE2-HTRF over IL1-β: Fold induction at 0.001 μM
reported property: fold induction at 0.001 µM
I'd appreciate a reply containing only the number, no unit.

C[C@H]1CCCN(C(=O)c2cnc3c(cnn3-c3ccc(N4CCNC4=O)nc3)c2)C1 [Compound C-57]; 4.07
C[C@H]1CCCN(C(=O)c2cnc3c(c2)nnn3-c2ccc(-c3nnc[nH]3)cc2)C1 [Compound C-19]; 1.11
C[C@H]1CCCN(C(=O)c2cnc3c(cnn3-c3ccc4nc(N)nn4c3)c2)C1 [Compound C-27]; 1.04
C[C@H]1CCCN(C(=O)c2cnc3c(cnn3-c3ccc(N4CCOCC4)nc3)c2)C1 [Compound C-26]; 1.05
O=C(c1cnc2c(cnn2-c2cncc(N3CCOCC3)c2)c1)N1CCC(F)(F)CC1 [Compound C-28]; 1.04
CCOc1ccc(-n2nnc3cc(C(=O)N4CCC[C@H](C)C4)cnc32)cc1 [Compound C-30]; 1.16
O=C(c1cnc2c(cnn2-c2ccc(-c3nnc[nH]3)cc2)c1)N1CCCC(F)(F)C1 [Compound C-59]; 0.91
Cc1nc(-c2ccc(-n3nnc4cc(C(=O)N5CCC[C@H](C)C5)cnc43)cc2)no1 [Compound C-29]; 3.78

For the compound O=C(c1cnc2c(cnn2-c2ccc(-c3ncn[nH]3)cc2)c1)N1CCC(F)(F)CC1 [Compound C-6] , give its measured fold induction at 0.001 µM value. 0.98

For the compound C[C@H]1CCCN(C(=O)c2cnc3c(cnn3-c3ccc(N4CCOC4=O)nc3)c2)C1 [Compound C-25] , give its measured fold induction at 0.001 µM value. 2.08

* * *

# system under test: 15-PGDH/HPGD (Homo sapiens, UniProt P15428)
# assay procedure: hPGDH inhibitor screening biochemical assay
# study conditions: 10 nM enzyme, 15 μM PGE2, 0.25 mM NAD, fluorescence ex/em 340/485 nm
reported property: IC50

O=C(c1cnc2c(cnn2-c2ccc(-c3nnc[nH]3)cc2)c1)N1CCCC(C(F)(F)F)C1 (centres unmarked) [Compound C-58]; 100 to 1000 nM

For the compound O=C(c1ccc2c(c1)nnn2-c1ccc(-c2ncn[nH]2)nc1)N1CCC(F)(F)CC1 [Compound C-9] , give its measured IC50 value. 100 to 1000 nM

For the compound C[C@@H]1CN(C(=O)c2cnc3c(cnn3-c3cc(Cl)cc(-c4nnc[nH]4)c3)c2)CCO1 [Compound C-60] , give its measured IC50 value. < 100 nM

For the compound O=C(c1cnc2c(cnn2-c2ccc(-c3nnc[nH]3)cc2F)c1)N1CCC(F)(F)CC1 [Compound C-73] , give its measured IC50 value. < 100 nM

For the compound C[C@H]1CCCN(C(=O)c2cnc3c(cnn3-c3ccc4nc(N)nn4c3)c2)C1 [Compound C-27] , give its measured IC50 value. < 100 nM

For the compound C[C@H]1CCCN(C(=O)c2cnc3c(cnn3-c3ccc(-c4nnc[nH]4)nc3)c2)C1 [Compound C-20] , give its measured IC50 value. < 100 nM

For the compound C[C@H]1CCCN(C(=O)c2cnc3c(cnn3-c3cncc(-c4nc[nH]n4)c3)c2)C1 [Compound C-34] , give its measured IC50 value. < 100 nM

* * *

# system under test: 15-PGDH/HPGD (Homo sapiens)
# assay procedure: hPGDH inhibitor screening biochemical assay
# study conditions: 10 nM enzyme, 15 μM PGE2, 0.25 mM NAD, fluorescence ex/em 340/485 nm
pIC50: −log10 of the molar value.
reported property: pIC50

See these solved cases before continuing.
C[C@H]1CCCN(C(=O)c2cnc3c(cnn3-c3cncc(C(N)=O)c3)c2)C1 [Compound C-35]; > 7.00
COc1cc(-c2nnc[nH]2)cc(-n2ncc3cc(C(=O)N4CCC(F)(F)CC4)cnc32)c1 [Compound C-71]; > 7.00
O=C(c1cnc2c(cnn2-c2cc(Cl)cc(-c3nnc[nH]3)c2)c1)N1CC[S+]([O-])CC1 [Compound C-67]; 6.00 to 7.00
O=C(c1cnc2c(cnn2-c2cccc(-c3nnc[nH]3)c2)c1)N1CCC(F)(F)CC1 [Compound C-41]; > 7.00
O=C(c1cnc2c(cnn2-c2ccc(-c3ncn[nH]3)nc2)c1)N1CCC(F)(F)CC1 [Compound C-4]; > 7.00

For the compound CCCC[S+]([O-])c1cnc2c(cnn2-c2ccc(-c3nnc[nH]3)cc2)c1 (centres unmarked) [Compound C-93] , give its measured pIC50 value. 6.00 to 7.00

For the compound O=C(c1cnc2c(cnn2-c2cc(Cl)cc(-c3nnc[nH]3)c2)c1)N1CCC(F)(F)CC1 [Compound C-62] , give its measured pIC50 value. > 7.00

For the compound O=C(c1cnc2c(cnn2-c2ccc(-c3nnc[nH]3)c(F)c2)c1)N1CCSCC1 [Compound C-64] , give its measured pIC50 value. > 7.00

From: patent US20240374579A1
